// Inhibition of [3H]didemnin B binding (%) lookup, one value per entry
- Test system: Nb2 cells, rat T-cell node lymphoma
- assay.protocol: Competitive binding with [3H]didemnin B to Nb2 cells
- measurement.parameters: 0.1 μg/mL; 3 h at 37° C.
Numbered stars: 1 amine (or outer) side, 2 acyl side, 3 side chain; on linkers, the order of the positions; unused ones are H or OH. Bridge positions count the residues as written; N and C are the ends. Square brackets hold non-standard residues; d marks the D form. Peptide text beside a SMILES is read from it. * marks the point of attachment. X1 = CC[C@H](C)[C@@H](N[*:1])[C@@H](O)CC(=O)O[C@H](C(=O)[C@H](C)C(=O)[*:2])C(C)C; X3 = CC[C@H](C)[C@H](N[*:1])[C@@H](O)CC(=O)O[C@H](C(=O)[C@H](C)C(=O)[*:2])C(C)C; NMeY = CN[C@@H](Cc1ccc(O)cc1)C(=O)O; aThr = C[C@H](O)[C@H](N)C(=O)O; dNMeL = CN[C@H](CC(C)C)C(=O)O; Isobutyryl = CC(C)C(=O)*
Numeric answer plus unit only.

Please review the following examples before continuing.
compound: CC[C@H](C)[C@H]1NC(=O)[C@@H](NC(=O)[C@@H](CC(C)C)N(C)C(=O)[C@@H]2CCCN2C(=O)C(C)C)[C@@H](C)OC(=O)[C@H](Cc2ccc(OC)cc2)N(C)C(=O)[C@@H]2CCCN2C(=O)[C@H](CC(C)C)NC(=O)[C@@H](C)C(=O)[C@H](C(C)C)OC(=O)C[C@@H]1O [[Isobutyryl^9]didemnin B] (Isobutyryl-P[dNMeL]T[X1]LP[NMeY](Me); ester 3-C)
Inhibition of [3H]didemnin B binding (%): 59%

compound: CC[C@H](C)[C@@H]1NC(=O)[C@@H](NC(=O)[C@@H](CC(C)C)N(C)C(C)=O)[C@H](C)OC(=O)[C@H](Cc2ccc(OC)cc2)N(C)C(=O)[C@@H]2CCCN2C(=O)[C@H](CC(C)C)NC(=O)[C@@H](C)C(=O)[C@H](C(C)C)OC(=O)C[C@@H]1O [N-Acetyldidemnin A (54), N-Acetyl didemnin A] (Ac-[dNMeL][aThr][X3]LP[NMeY](Me); ester 2-C)
Inhibition of [3H]didemnin B binding (%): 72%

compound: CC[C@H](C)[C@H]1NC(=O)[C@@H](NC(=O)[C@@H](CC(C)C)N(C)C(=O)[C@H]2CCCN2C(=O)C(C)C)[C@@H](C)OC(=O)[C@H](Cc2ccc(OC)cc2)N(C)C(=O)[C@@H]2CCCN2C(=O)[C@H](CC(C)C)NC(=O)[C@@H](C)C(=O)[C@H](C(C)C)OC(=O)C[C@@H]1O [[Isobutyryl^9 -D-Pro^8]didemnin B] (Isobutyryl-[dP][dNMeL]T[X1]LP[NMeY](Me); ester 3-C)
Inhibition of [3H]didemnin B binding (%): 25%

For `CC[C@H](C)[C@H]1NC(=O)[C@@H](NC(=O)[C@@H](CC(C)C)NC)[C@@H](C)OC(=O)[C@H](Cc2ccc(OC)cc2)N(C)C(=O)[C@@H]2CCCN2C(=O)[C@H](CC(C)C)NC(=O)[C@@H](C)[C@@H](O)[C@H](C(C)C)OC(=O)C[C@@H]1OC(C)=O` on Nb2 cells, rat T-cell node lymphoma, measured Inhibition of [3H]didemnin B binding (%) was 2%

For CC[C@H](C)[C@H]1NC(=O)[C@@H](NC(=O)[C@@H](CC(C)C)NC)[C@@H](C)OC(=O)[C@H](Cc2ccc(OC)cc2)N(C)C(=O)[C@@H]2CCCN2C(=O)[C@H](CC(C)C)NC(=O)[C@@H](C)C(=O)[C@H](C(C)C)OC(=O)C[C@@H]1O [Didemnin A (1), Didemnin A, reference compound] (H-[dNMeL]T[X1]LP[NMeY](Me); ester 2-C) on Nb2 cells, rat T-cell node lymphoma, measured Inhibition of [3H]didemnin B binding (%) was 20%

Where these numbers come from: patent US5294603A
